These measurements were taken from PubChem BioAssay (NCI).

- Test system: MOLT-4 leukemia
- TEST METHOD NOTES: NCI tumour cell line growth inhibition, 48 h
Give measured GI50 for each item. Keep answers brief.

// recorded GI50 for COC1/C=C/C(C)C(C(C)C(OC)C(C)CCC(=O)C(C)C(C/C=C/N(C)C=O)OC)OC(=O)/C=C/C=C(\C)CC(OC)CC2=CC(=O)O[C@H](C2)C(C)C(OC)CC(OC)/C=C/C(C)C(OC)C1 (some centres not stated) : 0.164 µM

// recorded GI50 for `CCOC(=O)c1cc2c(n1Cc1cccc(OC)c1)-c1oncc1CCC2` : 3.18 µM

// recorded GI50 for `COc1ccc(-c2nc(-c3ccccc3)c(-c3ccccc3)[nH]2)cc1OC1CCCC1` : 71.2 µM

// recorded GI50 for `Cc1cc(NCCN(C(C)C)C(C)C)nc(/N=C(\N)Nc2ccc(Cl)c(C(F)(F)F)c2)n1` : 0.383 µM

// recorded GI50 for `COc1cccc(-n2nc(C)c3c(N/N=C(\C)c4ccncc4)ncnc32)c1` : > 25 µM

// recorded GI50 for `CCn1cnc(C[C@H](NC(=O)[C@@H](NC(=O)Nc2cc(C(F)(F)F)cc(C(F)(F)F)c2)C(C)C)C(=O)OC)c1` : 2.99 µM

// recorded GI50 for `NC(=O)c1c(NC(=O)c2ccccn2)sc2c1CCC(=O)C2` : > 100 µM

// recorded GI50 for C1COCCN1.C1COCCN1.NC1CCCCC1N.[Cl-].[Pt+2] (configuration not stated) : > 100 µM

// recorded GI50 for `O=C(Nc1ccncc1)C(=O)c1cn(Cc2ccc(Cl)cc2)c2ccccc12` : 0.064 µM

// recorded GI50 for `COc1cccc(C2=C(c3c(C)n(C)c4ccccc34)C(=O)NC2=O)c1` : 16.1 µM

// recorded GI50 for CC1OC(n2c3ccccc3c3c4c(c5c6ccccc6[nH]c5c32)C(=O)N(CCN[C@@H]2CCC[C@H]2N)C4=O)CC(O)C1O (some centres not stated) : 0.747 µM

// recorded GI50 for `Cc1cc(Cl)ccc1Nc1nc(C(F)(F)F)ccc1C(=O)N/N=C/c1ccc(Cl)cc1` : 0.75 µM

// recorded GI50 for `N#CCCN(CCCN(CCCN(C(=O)Nc1ccccc1)c1ccccc1)C(=O)Nc1ccccc1)C(=O)Nc1ccccc1` : 3.95 µM

// recorded GI50 for `CCN(Cc1ccc(F)cc1)c1ccc(CO)c(F)c1` : 21.2 µM

// recorded GI50 for `O=c1oc(Cl)c(Cl)c2ccccc12` : 9.19 µM

// recorded GI50 for `COc1ccc(C(=O)/C=C/c2cccc([N+](=O)[O-])c2)c(OC)c1` : 1.17 µM

// recorded GI50 for `CC1(N)CCN(c2cccnc2NC(=O)c2nc(-c3ncccc3C(F)(F)F)cnc2N)CC1` : 13.9 µM

* * *

Give measured log10 of TGI for each item. Keep answers brief.
- Tested on: SF-539 CNS
- TEST METHOD NOTES: NCI tumour cell line growth inhibition, 48 h
In plain terms, each number is the log10 of measured TGI in µM.

log10 of TGI on SF-539 CNS for `CNCCCn1c2c(c3ccc([N+](=O)[O-])cc3c1=O)C(=O)c1cc(OC)cnc1-2` is -0.25

log10 of TGI on SF-539 CNS for `O=C(NCCNCCCNC(=O)c1cc(-c2ccccc2)nc2ccccc12)c1cccc(O)c1O` is 1.06

log10 of TGI on SF-539 CNS for `COc1cccc2c1ccc1nc3cccc(C(=O)N[C@H](C)CN(C)C)c3nc12` is 0.26

log10 of TGI on SF-539 CNS for `CCOC(=O)c1cc2c(n1Cc1cccc(OC)c1)-c1oncc1CCC2` is 0.67

log10 of TGI on SF-539 CNS for `COc1cccc2c1Cc1cc(-c3ccccc3)[n+](C)n1-2` is 1.64

log10 of TGI on SF-539 CNS for `O=c1oc(Cl)c(Cl)c2ccccc12` is 1.59

log10 of TGI on SF-539 CNS for `Cc1cc(NCCN(C(C)C)C(C)C)nc(/N=C(\N)Nc2ccc(Cl)c(C(F)(F)F)c2)n1` is -0.48

log10 of TGI on SF-539 CNS for CCCCCCCCC/C=C/C=C/C(=O)NCC(=O)NC1C(O)C(O)C(Nc2ncnc3nc[nH]c23)OC1C(O)CO (stereo not drawn) is -0.99

log10 of TGI on SF-539 CNS for `Nc1cccc(/C=C/C(=O)N2CCN(CCOC(c3ccccc3)c3ccccc3)CC2)c1` is 1.49

log10 of TGI on SF-539 CNS for `COc1ccc(-c2nc(/C=N/Nc3cc(C)nc4ccc(Cl)cc34)c(C)o2)cc1` is 0.54

log10 of TGI on SF-539 CNS for `COc1cc2c(ccc3c4cc(OC)c(OC)cc4c[n+](C)c23)cc1O` is 1.46

log10 of TGI on SF-539 CNS for `Cc1ccc(/C=C/c2nnc(N/N=C/c3ccc4c(c3)OCO4)[nH]c2=O)cc1` is 1.63

log10 of TGI on SF-539 CNS for `COc1cc(Nc2c(C#N)cnc3cc(OCCCN4CCN(C)CC4)c(OC)cc23)c(Cl)cc1Cl` is 0.77

log10 of TGI on SF-539 CNS for `c1csc(-c2cn3nc(-c4c[nH]c5ccccc45)sc3n2)c1` is 0.66

log10 of TGI on SF-539 CNS for Cc1ccc(NC2=CC(=O)C(NO)c3ccccc32)cc1 (stereo not drawn) is 0.94

log10 of TGI on SF-539 CNS for `Cc1nn(-c2ccccc2)c(C)c1/C=N/N=C1\SCC(=O)N1c1ccccc1` is 1.83

log10 of TGI on SF-539 CNS for `CN1CCN(CCOc2ccc(-c3cnc4c(-c5ccc(C(F)(F)F)cc5)cnn4c3)cc2)CC1` is 0.48

log10 of TGI on SF-539 CNS for `Cc1cc(Cl)ccc1Nc1nc(C(F)(F)F)ccc1C(=O)N/N=C/c1ccc(Cl)cc1` is 0.60

log10 of TGI on SF-539 CNS for `C[C@]12CCc3sc(NCCc4ccccc4)nc3C1=CC[C@@H]1[C@@H]2CC[C@]2(C)C(=O)CC[C@@H]12` is 0.56
